# assayText: in vitro
# Assay type: cell-based
# conditionInfo: human; HepG2, 24 h of exposure; read-out: LC50 (the source's name)
reportedMetric: CC50 (µM)
// return numeric value only (unit: µM, not printed)

(Q) Which CC50 value belongs to COS(C)(=O)=O [MMS, methyl methanesulfonate] ?
(A) 18.7

---

# assayText: in vitro
# Format: cell-based
# conditionInfo: human; HepG2, 24 h of exposure; read-out: LC50
reportedMetric: CC50 at 24 h (µM)
Supply the numeric figure in µM, leaving out any unit text.

(Q) What CC50 at 24 h value was documented for this molecule, O=P1(N(CCCl)CCCl)NCCCO1 (stereo not shown) [CPA, cyclophosphamide] ?
(A) 98.7
